The reported measurements were obtained from paper PMC11642940.

# System: PC-3 prostate adenocarcinoma cells
# MEASUREMENT NOTES: MTT cell viability assay, PC-3
# MEASUREMENT SETUP: Homo sapiens, 72 h, read-out: IC50 PC-3, PC-3, 72 h incubation, MTT
Below, each of the molecules is paired with its reported log10(IC50) value.
Please keep in mind that the values are log10 of IC50 expressed in nM.

Reported log10(IC50) ( CCN1C(=Cc2sc3cc([N+](=O)[O-])ccc3[n+]2CC)Sc2ccccc21.Cc1ccc(S(=O)(=O)[O-])cc1 ) = 3.77

Reported log10(IC50) ( CCN1C(=Cc2sc3ccc(NC(C)=O)cc3[n+]2CC)Sc2ccccc21.Cc1ccc(S(=O)(=O)[O-])cc1 ) = 3.55

Reported log10(IC50) ( CN1C(=Cc2sc3ccccc3[n+]2C)Oc2ccccc21.Cc1ccc(S(=O)(=O)[O-])cc1 ) = 2.68

Reported log10(IC50) ( CCN1C(=Cc2sc3cc(N)ccc3[n+]2CC)Sc2ccccc21.[I-] ) = 3.32

Reported log10(IC50) ( CN1C(=Cc2oc3ccccc3[n+]2C)C=Cc2ccccc21.Cc1ccc(S(=O)(=O)[O-])cc1 ) = 3.16

Reported log10(IC50) ( CN1C(=Cc2n(C)c3ccccc3[n+]2C)Sc2ccccc21.[I-] ) = 3.45

---

Below, each of the molecules is paired with its reported melting point value.

Example molecules with recorded melting point:
STRUCTURE	melting point
CCCCCCCCCCN1C(=Cc2sc3ccccc3[n+]2C)Sc2ccccc21.[I-]	217 to 218 °C
CCN1C(=Cc2n(CC)c3ccc([N+](=O)[O-])cc3[n+]2CC)Sc2ccccc21.[I-]	219 to 220 °C
CCCCCN1C(=Cc2sc3ccccc3[n+]2C)Sc2ccccc21.[I-]	254 to 258 °C

# evaluate next
Reported melting point ( CN1C(=Cc2n(C)c3ccccc3[n+]2C)Sc2ccccc21.[I-] ) = 270 to 272 °C

---

# Test system: Caco-2 colorectal adenocarcinoma cells
# MEASUREMENT NOTES: MTT cell viability assay, Caco-2
# MEASUREMENT SETUP: Homo sapiens, Caco-2, 72 h, read-out: IC50 Caco-2
Below, each of the molecules is paired with its reported pIC50 value.
pIC50 here: minus log base 10 of the concentration, concentration in moles per litre.

Example molecules with recorded pIC50:
MOLECULE	PARAMETER	MEASUREMENT
CCN1C(=Cc2n(CC)c3ccc([N+](=O)[O-])cc3[n+]2CC)Sc2ccccc21.[I-] [Dye 9]	pIC50	5.85
O=c1[nH]cc(F)c(=O)[nH]1 [5-FU, 5-fluorouracil, reference compound]	pIC50	5.95
CCN1C(=Cc2sc3ccc(N)cc3[n+]2CC)Sc2ccccc21 [Dye 8]	pIC50	6.13
CN1C(=Cc2sc3ccccc3[n+]2C)C=Cc2ccccc21 [Dye 6]	pIC50	6.57
CN1C=C/C(=C/c2ccc3ccccc3[n+]2C)c2ccccc21 [Dye 12]	pIC50	6.14

Reported pIC50 ( CN1C(=Cc2sc3ccccc3[n+]2C)Oc2ccccc21.Cc1ccc(S(=O)(=O)[O-])cc1 [Dye 3] ) = 7.05

Reported pIC50 ( CCCCCN1C(=Cc2sc3ccccc3[n+]2C)Sc2ccccc21.[I-] [Dye 1] ) = 6.44

Reported pIC50 ( CCN1C(=Cc2sc3ccc(NC(C)=O)cc3[n+]2CC)Sc2ccccc21.Cc1ccc(S(=O)(=O)[O-])cc1 [Dye 7] ) = 6.85

Reported pIC50 ( CCCCCCCCCCN1C(=Cc2sc3ccccc3[n+]2C)Sc2ccccc21.[I-] [Dye 2] ) = 6.62
